target: T1, human ROR1 ECD protein (human, UniProt Q01973 30-406); test: BLI (Octet), antibody on AHC sensor, ROR1 ECD in solution
T1 construct: range 30-406; Expressed in Expi293 or ExpiCHO cells; also called Recombinant human ROR ECD
T1 sequence (Q01973 30-406): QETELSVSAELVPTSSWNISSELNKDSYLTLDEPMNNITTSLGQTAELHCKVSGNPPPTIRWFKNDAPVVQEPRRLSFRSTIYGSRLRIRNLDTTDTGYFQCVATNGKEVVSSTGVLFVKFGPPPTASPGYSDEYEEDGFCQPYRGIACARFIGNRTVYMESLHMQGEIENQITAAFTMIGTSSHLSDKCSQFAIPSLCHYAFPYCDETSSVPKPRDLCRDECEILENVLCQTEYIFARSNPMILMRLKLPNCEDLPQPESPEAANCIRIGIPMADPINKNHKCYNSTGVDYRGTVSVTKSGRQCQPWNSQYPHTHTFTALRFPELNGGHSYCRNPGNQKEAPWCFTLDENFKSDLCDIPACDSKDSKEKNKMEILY
MEASUREMENT_LABEL: fold stronger affinity than UC961 (by KD)

BINDER	MEASURED_VALUE
3D8-Chi (antibody, human IgG1, kappa, V domains shown, Variable regions of 3D8.2.3 on human IgG1 / kappa constant regions; also called anti-human ROR1 chimeric antibody 3D8-Chi) VH: EVKLVESGGGLVKPGGSLKLSCAASGFTFSSYAMSWVRQTPEKRLEWVASINSGGSTYYPDSVKGRFTISRDNARNILYLQMSSLRSEDTAMYYCARVNYYGYGDYAMDYWGQGTSVTVSS VL: DIKMTQSPSSMYASLGERVTITCKASQDINSYLSWFQQKPGKSPKTLIYRANRLVDGVPSRFSGSGSGQDYSLTISSLEYEDMGIYYCLQYDEFPYTFGGGTNLEIKR	2 fold
19F6-Hu35V1 (antibody, human IgG1, kappa, V domains shown, humanized, human IgG1 / kappa) VH: QVQLQESGPGLVKPSQTLSLTCTVSGYSITSDYAWNWIRQFPGKGLEWIGYISYSGSIRYNPSLKSRVTISRDTSKNQFSLKLSSVTAADTAVYYCARGEITYYFDYWGQGTLVTVSS VL: ETTLTQSPAFMSATPGDKVTISCKASTSIDDDMNWYQQKPGEPPKLIISEGNTLRPGIPPRFSSSGYGTDFTFTINKIKSEDAATYYCLQSNDLPLTFGQGTKLEIKR	5.4 fold
19F6-Chi (antibody, human IgG1, kappa, V domains shown, Variable regions of 19F6.2.3 on human IgG1 / kappa constant regions; also called anti-human ROR1 chimeric antibody 19F6-Chi) VH: DVQLQESGPGLVKPSQSLSLTCTVTGYSITSDYAWNWIRQFPGNKLEWMGYISYSGSIRYNPSLKSRISITRDTSKNQFFLQLNSVTTEDTATYYCARGEITYYFDYWGQGTTLTVSS VL: DIKMTQSPASLSMAIGEKVTIRCITTTDIDDDMNWYQQKPGEPPKLLISEGNTLRPGVPSRFSSSGYGTDFVFTIENMVSEDVADYYCLQSNDLPLTFGAGTKLELKR	34.6 fold
38F8-Chi (antibody, human IgG1, kappa, V domains shown, Variable regions of 38F8.1.1 on human IgG1 / kappa constant regions; also called anti-human ROR1 chimeric antibody 38F8-Chi) VH: EVKLVESGGDLVKPGGSLKLSCTASGFTFSNYAMSWVRQTPEKRLEWVASISSGGPTYYPDSVKGRFTVSRDNARNILYLQMSSLRSEDTAMYYCARGYRYDVNWYFDVWGAGTSVTVSS VL: DIKMTQSPSSMYASLGERVTITCKASQDINSYLTWFQQKPGKSPKTLIHRANRLVDGVPSRFSGSGSGQDYSLTISSLEYEDMGIYYCLQYDEFPYTFGGGTKLEIKR	5 fold
